Here, each record is paired with measured pKd data.
- study target: Gal-1 (Homo sapiens, UniProt P09382)
- Construct: made in house; host or cells: E. coli BL21(DE3)
- Sequence (P09382 whole entry): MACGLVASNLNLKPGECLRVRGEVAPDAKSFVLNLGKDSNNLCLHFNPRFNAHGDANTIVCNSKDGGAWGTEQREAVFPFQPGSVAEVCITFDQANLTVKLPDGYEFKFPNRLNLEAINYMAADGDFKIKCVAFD
- method notes: Pull-down assay with immobilized protein and LSM libraries
- Type: binding
- conditions: H12 library; 1:1 binding assumed; read-out: Surface mapping KD (apparent)
pKd: −log10 of the molar value.

- compound: "CC[C@H](C)[C@@H](CC(=O)N[C@H]1CCC[C@@H]1C(=O)N[C@H]1CCC[C@@H]1C(=O)N[C@H](CC(=O)N[C@H]1CCC[C@@H]1C(=O)N[C@H]1CCC[C@@H]1C(N)=O)Cc1ccc(O)cc1)NC(=O)[C@H]1CCC[C@@H]1NC(=O)[C@H]1CCC[C@@H]1N [H12 IY]"
  study target: "Gal-1 (Homo sapiens, UniProt P09382)"
  pKd: 3.46
- compound: "NC(=O)[C@H]1CCC[C@@H]1NC(=O)[C@H]1CCC[C@@H]1NC(=O)C[C@H](Cc1c[nH]c2ccccc12)NC(=O)[C@H]1CCC[C@@H]1NC(=O)[C@H]1CCC[C@@H]1NC(=O)C[C@H](CCC(=O)O)NC(=O)[C@H]1CCC[C@@H]1NC(=O)[C@H]1CCC[C@@H]1N [H12 EW]"
  study target: "Gal-1 (Homo sapiens, UniProt P09382)"
  pKd: 3.63
- compound: "NC(=O)[C@H]1CCC[C@@H]1NC(=O)[C@H]1CCC[C@@H]1NC(=O)C[C@H](Cc1c[nH]c2ccccc12)NC(=O)[C@H]1CCC[C@@H]1NC(=O)[C@H]1CCC[C@@H]1NC(=O)C[C@H](Cc1c[nH]c2ccccc12)NC(=O)[C@H]1CCC[C@@H]1NC(=O)[C@H]1CCC[C@@H]1N [H12 WW]"
  study target: "Gal-1 (Homo sapiens, UniProt P09382)"
  pKd: 3.82
- compound: "CC(C)C[C@@H](CC(=O)N[C@H]1CCC[C@@H]1C(=O)N[C@H]1CCC[C@@H]1C(=O)N[C@@H](CCC(N)=O)CC(=O)N[C@H]1CCC[C@@H]1C(=O)N[C@H]1CCC[C@@H]1C(N)=O)NC(=O)[C@H]1CCC[C@@H]1NC(=O)[C@H]1CCC[C@@H]1N [H12 LQ]"
  study target: "Gal-1 (Homo sapiens, UniProt P09382)"
  pKd: 3.35
- compound: "NC(=O)[C@H]1CCC[C@@H]1NC(=O)[C@H]1CCC[C@@H]1NC(=O)C[C@H](Cc1c[nH]c2ccccc12)NC(=O)[C@H]1CCC[C@@H]1NC(=O)[C@H]1CCC[C@@H]1NC(=O)C[C@H](Cc1ccccc1)NC(=O)[C@H]1CCC[C@@H]1NC(=O)[C@H]1CCC[C@@H]1N [H12 FW]"
  study target: "Gal-1 (Homo sapiens, UniProt P09382)"
  pKd: 3.87
- compound: "N=C(N)NCCC[C@@H](CC(=O)N[C@H]1CCC[C@@H]1C(=O)N[C@H]1CCC[C@@H]1C(=O)N[C@H](CC(=O)N[C@H]1CCC[C@@H]1C(=O)N[C@H]1CCC[C@@H]1C(N)=O)Cc1ccccc1)NC(=O)[C@H]1CCC[C@@H]1NC(=O)[C@H]1CCC[C@@H]1N [H12 RF]"
  study target: "Gal-1 (Homo sapiens, UniProt P09382)"
  pKd: 3.69
- compound: "CC(C)C[C@@H](CC(=O)N[C@H]1CCC[C@@H]1C(=O)N[C@H]1CCC[C@@H]1C(N)=O)NC(=O)[C@H]1CCC[C@@H]1NC(=O)[C@H]1CCC[C@@H]1NC(=O)C[C@H](CC(C)C)NC(=O)[C@H]1CCC[C@@H]1NC(=O)[C@H]1CCC[C@@H]1N [H12 LL]"
  study target: "Gal-1 (Homo sapiens, UniProt P09382)"
  pKd: 3.38
- compound: "NC(=O)[C@H]1CCC[C@@H]1NC(=O)[C@H]1CCC[C@@H]1NC(=O)C[C@H](Cc1c[nH]c2ccccc12)NC(=O)[C@H]1CCC[C@@H]1NC(=O)[C@H]1CCC[C@@H]1NC(=O)C[C@H](CC(=O)O)NC(=O)[C@H]1CCC[C@@H]1NC(=O)[C@H]1CCC[C@@H]1N [H12 DW]"
  study target: "Gal-1 (Homo sapiens, UniProt P09382)"
  pKd: 3.62
- compound: "C[C@@H](CC(=O)N[C@H]1CCC[C@@H]1C(=O)N[C@H]1CCC[C@@H]1C(N)=O)NC(=O)[C@H]1CCC[C@@H]1NC(=O)[C@H]1CCC[C@@H]1NC(=O)C[C@H](CCCNC(=N)N)NC(=O)[C@H]1CCC[C@@H]1NC(=O)[C@H]1CCC[C@@H]1N [H12 RA]"
  study target: "Gal-1 (Homo sapiens, UniProt P09382)"
  pKd: 3.31
- compound: "CC(C)C[C@@H](CC(=O)N[C@H]1CCC[C@@H]1C(=O)N[C@H]1CCC[C@@H]1C(N)=O)NC(=O)[C@H]1CCC[C@@H]1NC(=O)[C@H]1CCC[C@@H]1NC(=O)C[C@H](C)NC(=O)[C@H]1CCC[C@@H]1NC(=O)[C@H]1CCC[C@@H]1N [H12 AL]"
  study target: "Gal-1 (Homo sapiens, UniProt P09382)"
  pKd: 3.36
- compound: "NCCCC[C@@H](CC(=O)N[C@H]1CCC[C@@H]1C(=O)N[C@H]1CCC[C@@H]1C(N)=O)NC(=O)[C@H]1CCC[C@@H]1NC(=O)[C@H]1CCC[C@@H]1NC(=O)C[C@H](CC(N)=O)NC(=O)[C@H]1CCC[C@@H]1NC(=O)[C@H]1CCC[C@@H]1N [H12 NK]"
  study target: "Gal-1 (Homo sapiens, UniProt P09382)"
  pKd: 3.37
- compound: "CC[C@H](C)[C@@H](CC(=O)N[C@H]1CCC[C@@H]1C(=O)N[C@H]1CCC[C@@H]1C(N)=O)NC(=O)[C@H]1CCC[C@@H]1NC(=O)[C@H]1CCC[C@@H]1NC(=O)C[C@H](Cc1ccc(O)cc1)NC(=O)[C@H]1CCC[C@@H]1NC(=O)[C@H]1CCC[C@@H]1N [H12 YI]"
  study target: "Gal-1 (Homo sapiens, UniProt P09382)"
  pKd: 3.50
- compound: "CC[C@H](C)[C@@H](CC(=O)N[C@H]1CCC[C@@H]1C(=O)N[C@H]1CCC[C@@H]1C(N)=O)NC(=O)[C@H]1CCC[C@@H]1NC(=O)[C@H]1CCC[C@@H]1NC(=O)C[C@H](CC(C)C)NC(=O)[C@H]1CCC[C@@H]1NC(=O)[C@H]1CCC[C@@H]1N [H12 LI]"
  study target: "Gal-1 (Homo sapiens, UniProt P09382)"
  pKd: 3.38
- compound: "N=C(N)NCCC[C@@H](CC(=O)N[C@H]1CCC[C@@H]1C(=O)N[C@H]1CCC[C@@H]1C(=O)N[C@@H](CC(=O)O)CC(=O)N[C@H]1CCC[C@@H]1C(=O)N[C@H]1CCC[C@@H]1C(N)=O)NC(=O)[C@H]1CCC[C@@H]1NC(=O)[C@H]1CCC[C@@H]1N [H12 RD]"
  study target: "Gal-1 (Homo sapiens, UniProt P09382)"
  pKd: 3.60
